- Tested System: PRMT5 (Homo sapiens, UniProt O14744)
- Construct: purchased Viva (custom protein)
- Sequence (O14744 whole entry): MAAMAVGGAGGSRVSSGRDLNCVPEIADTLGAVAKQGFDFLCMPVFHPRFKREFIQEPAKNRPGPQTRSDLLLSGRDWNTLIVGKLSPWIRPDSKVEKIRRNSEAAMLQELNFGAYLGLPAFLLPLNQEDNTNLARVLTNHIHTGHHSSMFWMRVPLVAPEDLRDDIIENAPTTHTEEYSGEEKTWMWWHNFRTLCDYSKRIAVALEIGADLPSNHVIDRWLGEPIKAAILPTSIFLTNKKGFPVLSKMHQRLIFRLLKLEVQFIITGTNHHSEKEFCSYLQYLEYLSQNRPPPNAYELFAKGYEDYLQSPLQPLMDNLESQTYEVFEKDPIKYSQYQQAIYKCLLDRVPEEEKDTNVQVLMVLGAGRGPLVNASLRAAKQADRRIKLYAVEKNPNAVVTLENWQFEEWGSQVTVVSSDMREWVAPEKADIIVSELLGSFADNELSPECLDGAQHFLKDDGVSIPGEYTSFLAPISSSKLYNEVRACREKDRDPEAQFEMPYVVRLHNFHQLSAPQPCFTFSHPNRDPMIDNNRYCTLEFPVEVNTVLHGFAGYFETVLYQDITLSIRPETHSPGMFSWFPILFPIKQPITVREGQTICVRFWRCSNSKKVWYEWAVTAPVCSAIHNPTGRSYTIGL
- Sequence (Q9BQA1 whole entry partner): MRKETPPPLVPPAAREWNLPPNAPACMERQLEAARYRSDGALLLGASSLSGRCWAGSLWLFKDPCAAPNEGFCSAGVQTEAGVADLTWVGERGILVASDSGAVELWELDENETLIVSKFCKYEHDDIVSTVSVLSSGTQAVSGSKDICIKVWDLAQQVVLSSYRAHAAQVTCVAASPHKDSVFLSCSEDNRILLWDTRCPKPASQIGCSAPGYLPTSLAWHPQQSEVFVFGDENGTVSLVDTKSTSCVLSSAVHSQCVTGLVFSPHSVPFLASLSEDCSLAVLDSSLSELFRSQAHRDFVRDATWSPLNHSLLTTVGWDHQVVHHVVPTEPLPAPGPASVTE
- Test Summary: PRMT5 biochemical IC50 assay with no cofactor
- Experimental Context: PRMT5, no cofactor; read-out: No Cofactor/rel IC50
pIC50: −log10 of the molar value.
Items are presented alongside their recorded pIC50.

Compound | pIC50
CNS(=O)(=O)c1ccc([C@@H]2CC[C@@H](C)CN2C(=O)C(=O)Nc2cncc(C(N)=O)c2)cc1 (single isomer, unassigned) [Compound 723] | < 6.30
CC(=O)N[C@H]1C[C@H]([C@H]2CC[C@H](C)CN2C(=O)C(=O)Nc2cnc(N)c(C)c2)C1 (single isomer, unassigned) [Compound 563] | < 6.30
C[C@@H]1CC[C@@H](c2ccc(F)c(Cl)c2)N(C(=O)C(=O)Nc2cncc(C(N)=O)c2)C1 (racemic) [Compound 338] | 6.30 to 7.30

----------
# IC50 per record follows
- Tested System: PRMT5 (Homo sapiens)
- Construct: purchased Viva (custom protein)
- Test Summary: PRMT5 biochemical IC50 assay with MTA as cofactor
- Experimental Context: PRMT5, MTA as cofactor; read-out: MTA IC50

Compound | Tested System | IC50
Cc1cc(NC(=O)C(=O)N2C[C@H](C)[C@@H](OC(C)C)C[C@H]2c2ccccc2)cnc1N (single isomer, unassigned) | PRMT5 (Homo sapiens) | < 50 nM
Cc1cc(NC(=O)C(=O)N2C[C@H](C)CC[C@H]2c2ccc3[nH]c(=O)ccc3c2)cnc1N (racemic) [Compound 671] | PRMT5 (Homo sapiens) | < 50 nM
CC[C@H]1CC[C@@H](c2ccccc2)N(C(=O)C(=O)Nc2cncc(C)c2)C1 (single isomer, unassigned) | PRMT5 (Homo sapiens) | > 500 nM
COc1ncc(NC(=O)C(=O)N2C[C@@H](C)CC[C@@H]2c2ccn(-c3cc[nH]n3)n2)cc1C(N)=O (single isomer, unassigned) | PRMT5 (Homo sapiens) | > 500 nM
CC[C@@H]1CC[C@@H](c2ccccc2)N(C(=O)C(=O)Nc2cncc(C(N)=O)c2)C1 (single isomer, unassigned) | PRMT5 (Homo sapiens) | > 500 nM
CCc1cc(NC(=O)C(=O)N2C[C@@H](C)CC[C@@H]2c2ccc(N3CCN(C)CC3)cc2)cnc1N (racemic) [Compound 1209] | PRMT5 (Homo sapiens) | < 50 nM
Cc1cc(NC(=O)C(=O)N2CC[C@@H](C#N)C[C@H]2c2ccccc2)cnc1N (single isomer, unassigned) | PRMT5 (Homo sapiens) | < 50 nM
Cc1cc(NC(=O)C(=O)N2C[C@@H](C)CC[C@@H]2c2ccc3sc(C4CN(C)C4)nc3c2)cnc1C | PRMT5 (Homo sapiens) | < 50 nM
Cc1cc(NC(=O)C(=O)N2C[C@H](C)CC[C@H]2c2ccc(C(N)=O)s2)cnc1N (racemic) [Compound 644] | PRMT5 (Homo sapiens) | 50 to 500 nM
COc1ncc(NC(=O)C(=O)N2C[C@H](C)CC[C@H]2c2cc3[nH]ncc3s2)cc1C(N)=O (single isomer, unassigned) | PRMT5 (Homo sapiens) | > 500 nM
Cc1cc(C)cc([C@@H]2CC[C@@H](C)CN2C(=O)C(=O)Nc2cncc(C(N)=O)c2)c1 (racemic) | PRMT5 (Homo sapiens) | < 50 nM
COc1ncc(NC(=O)C(=O)N2C[C@@H](C)CC[C@@H]2c2ccc(F)cc2)cc1C(N)=O (single isomer, unassigned) | PRMT5 (Homo sapiens) | > 500 nM
Cc1cc(NC(=O)C(=O)N2C[C@@H](C)CC[C@@H]2c2ccc(C(F)F)nc2)cnc1N (single isomer, unassigned) | PRMT5 (Homo sapiens) | < 50 nM
CC[C@@H]1CC[C@@H](c2ccccc2)N(C(=O)C(=O)Nc2cncc(C)c2)C1 (single isomer, unassigned) | PRMT5 (Homo sapiens) | 50 to 500 nM
CC(=O)N[C@H]1CC[C@H]([C@H]2CC[C@H](C)CN2C(=O)C(=O)Nc2cnc(N)c(C)c2)CC1 (single isomer, unassigned) | PRMT5 (Homo sapiens) | 50 to 500 nM
Cc1cc(NC(=O)C(=O)N2C[C@@H]3CC[C@@H](C3)[C@@H]2c2ccccc2)cnc1N (single isomer, unassigned) | PRMT5 (Homo sapiens) | 50 to 500 nM
Cc1ccc([C@@H]2CC[C@@H](C)CN2C(=O)C(=O)Nc2cncc(C(N)=O)c2)cc1F (racemic) | PRMT5 (Homo sapiens) | < 50 nM
